- Species on record: Rattus norvegicus
- assay details: Antiischemic potency is determined by EC25 value for increase in time to the onset of contracture in globally ischemic isolated perfused rat hearts.
- Format: functional
property name: EC25 (µM)
Answer format: numeric, µM implied, no suffix.

## Task Entry `CC1(C)Oc2ccc(C#N)cc2[C@H](N(Cc2ncc[nH]2)c2ccccc2)[C@H]1O` has what EC25?
## Result 4.3

## Task Entry `CCOC(=O)CN(c1ccccc1)[C@@H]1c2cc(C#N)ccc2OC(C)(C)[C@H]1O` has what EC25?
## Result 4.7

## Task Entry `CC1(C)Oc2ccc(C#N)cc2[C@H](N(Cc2ccco2)c2ccccc2)[C@H]1O` has what EC25?
## Result 3.2

## Task Entry `CCOC(=O)CCCN(c1ccccc1)[C@H]1c2cc(C#N)ccc2OC(C)(C)[C@@H]1O` has what EC25?
## Result 5.7
